Values compiled from the supplement of paper PMC6607015.

- Test system: HeLa MZ
- protocol description: filipin (cholesterol) integrated intensity within LBPA endosomes, Z-score; higher = more cholesterol in LBPA endosomes
- protocol conditions: compound concentration in added solution (µM; 5 µl added to 20 µl cells): 10; 18 h
Structures can show the parent of a compound that is named as a salt.
parameter measured: filipin (z-score)

> print(dat)
                                   compound  assay.system  reported.measurement
1  Cc1ccc(N(CC2=NCCN2)c2cccc(O)c2)cc1 [Phentolamine hydrochloride]       HeLa MZ               -0.0953
2  CC(=O)Oc1cc(C(C)C)c(OCCN(C)C)cc1C [Moxisylyte hydrochoride]       HeLa MZ                -0.452
3   Cn1cnc([N+](=O)[O-])c1Sc1ncnc2[nH]cnc12       HeLa MZ                -0.677

---

- System: HeLa MZ
- protocol description: filipin (cholesterol) integrated intensity within LBPA endosomes, Z-score; higher = more cholesterol in LBPA endosomes
- protocol conditions: compound concentration in added solution (µM; 5 µl added to 20 µl cells): 10; 18 h
Where a name gives a salt, the structure may show the parent alone.
Would you mind classing the entries by filipin (z-score)? Ranges: lowest = under -0.6, middle = from -0.6 up to -0.3, highest = -0.3 and over

compound	cat
O=C1c2ccccc2C(=O)C1c1ccccc1	middle
CCOC(=O)C(C)(C)Oc1ccc(Cl)cc1 [Clofibrate]	lowest
CC(Oc1c(Cl)cccc1Cl)C1=NCCN1 (stereo not given)	highest
CNC(C)CCC=C(C)C (stereo not given) [Isometheptene mucate]	middle
CO[C@@]1(NC(=O)C(C(=O)O)c2ccc(O)cc2)C(=O)N2C(C(=O)O)=C(CSc3nnnn3C)CO[C@@H]21 (stereo not given in full) [Moxalactam disodium salt]	highest
CN(C)C(=O)C(CCN1CCC(O)(c2ccc(Cl)cc2)CC1)(c1ccccc1)c1ccccc1 [Loperamide hydrochloride]	highest
CC(=O)Oc1cccc2c1C(=O)c1c(OC(C)=O)cc(C(=O)O)cc1C2=O	middle
C[C@H](CCC(=O)O)[C@H]1CC[C@H]2[C@@H]3[C@H](O)C[C@@H]4C[C@H](O)CC[C@]4(C)[C@H]3CC[C@]12C	lowest
Cc1c(-c2ccccc2)oc2c(C(=O)OCCN3CCCCC3)cccc2c1=O [Flavoxate hydrochloride]	middle

---

Recorded measurements of whole-cell filipin (z-score), one per entry
- Test system: HeLa MZ
- protocol description: whole-cell filipin (free cholesterol) integrated intensity, Z-score; higher = more cholesterol staining
- protocol conditions: compound concentration in added solution (µM; 5 µl added to 20 µl cells): 10; 18 h
Counter-ions that a name gives are not always drawn.
parameter measured: whole-cell filipin (z-score)

compound	parameter measured	reported measurement
Nc1ccn([C@H]2CC[C@@H](CO)O2)c(=O)n1 [Zalcitabine]	whole-cell filipin (z-score)	0.402
CO[C@@]1(NC(=O)C(C(=O)O)c2ccc(O)cc2)C(=O)N2C(C(=O)O)=C(CSc3nnnn3C)CO[C@@H]21 (stereo partly drawn) [Moxalactam disodium salt]	whole-cell filipin (z-score)	0.413
CCN(CC)CCNC(=O)c1cc(Cl)c(N)cc1OC [Metoclopramide monohydrochloride]	whole-cell filipin (z-score)	-0.234
CN[C@H]1CC[C@@H](c2ccc(Cl)c(Cl)c2)c2ccccc21 [Sertraline]	whole-cell filipin (z-score)	0.938
C[C@H](CCC(=O)O)[C@H]1CC[C@H]2[C@@H]3[C@H](O)C[C@@H]4C[C@H](O)CC[C@]4(C)[C@H]3CC[C@]12C [Chenodiol]	whole-cell filipin (z-score)	-0.999
NC(=O)c1cnccn1 [Pyrazinamide]	whole-cell filipin (z-score)	-0.665
CC1(C)S[C@@H]2[C@H](NC(=O)[C@H](C(=O)O)c3ccsc3)C(=O)N2[C@H]1C(=O)O [Ticarcillin sodium]	whole-cell filipin (z-score)	-0.157
O=C(NCCNCC(O)COc1ccc(O)cc1)N1CCOCC1 (stereo not drawn) [Xamoterol hemifumarate]	whole-cell filipin (z-score)	-0.263
C[C@]12C=CC(=O)C=C1CC[C@H]1[C@@H]3C[C@@H](O)[C@](O)(C(=O)CO)[C@@]3(C)C[C@H](O)[C@@]12F [Triamcinolone]	whole-cell filipin (z-score)	-0.264
Cc1cn([C@H]2C=C[C@@H](CO)O2)c(=O)[nH]c1=O [Stavudine]	whole-cell filipin (z-score)	0.186
CCN(CCCc1ccccc1)CCCc1ccccc1 [Alverine citrate salt]	whole-cell filipin (z-score)	-0.0321
CC(=O)[C@H]1CC[C@H]2[C@@H]3C=CC4=CC(=O)CC[C@@]4(C)[C@@H]3CC[C@]12C [Dydrogesterone]	whole-cell filipin (z-score)	0.0624
O=C1OCCN1/N=C/c1ccc([N+](=O)[O-])o1 [Furazolidone]	whole-cell filipin (z-score)	0.522
